target: T1, WD40 domain of human Cdh1 (aa 165–484), for anisotropy (human, UniProt Q9UM11 165-484); assay: fluorescence polarisation; fluorescence anisotropy; 10 nM C-terminally Cy5-labeled peptide mixed with increasing concentrations of purified protein (Cdh1 WD40 up to 30.6 µM); wash buffer B (50 mM Tris-HCl pH 8, 150 mM KCl, 0.5 mM EDTA, 1 mM DTT, 10% glycerol); 25 °C; one-site equilibrium fit; conditions: both partners purified
T1 construct: human Cdh1, WD40 domain, aa 165-484; Cloned into pFastBac HT A; also called human Cdh1 WD40; source: Sf9, baculovirus, purified (StrepTrap)
T1 sequence (Q9UM11 165-484): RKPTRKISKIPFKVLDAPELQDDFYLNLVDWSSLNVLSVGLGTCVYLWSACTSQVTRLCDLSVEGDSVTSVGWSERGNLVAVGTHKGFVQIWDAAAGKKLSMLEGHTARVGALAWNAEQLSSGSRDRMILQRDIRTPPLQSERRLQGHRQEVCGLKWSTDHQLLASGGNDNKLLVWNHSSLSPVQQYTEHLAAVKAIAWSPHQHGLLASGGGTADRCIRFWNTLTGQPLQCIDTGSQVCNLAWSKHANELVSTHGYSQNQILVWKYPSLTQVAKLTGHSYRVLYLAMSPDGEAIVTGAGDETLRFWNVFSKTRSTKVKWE
pKd: −log10 of the molar value. Where no end group is shown, it is not given here.
value_kind: pKd

## Input Please give the measured pKd for this binder: EQKPKRAALSDITNSFNKMNK-Cy5 [Cy5-labeled Hsl1 D box peptide]
## Output ~5.70

# credit: paper PMC8764033
